- System: HL-1
- assay_info: relative cell viability (CellTiter-Glo) vs DMSO control (% of DMSO control); higher = more viable cells
- run_parameters: oxygen condition: normoxia 72 h; 40 nM
Structures can show the parent of a compound that is named as a salt.
Threshold 100. relative cell viability below it: 1. relative cell viability at it or above: 0.

[[record]]
compound = "Cc1cccc(C)c1NC1=NCCCS1 [Xylazine HCl]"
answer_label = 0

[[record]]
compound = "CNC1CC(N)C(O)C(OC2OC(CO)C(O)C3OC4(OC(C(N)CO)C(O)C(O)C4O)OC23)C1O (centres undefined)"
answer_label = 0

[[record]]
compound = "CN1[C@@H]2CC[C@H]1C[C@@H](OC(=O)[C@H](CO)c1ccccc1)C2"
answer_label = 0

[[record]]
compound = "N.N.[Cl][Pt][Cl] [Cisplatin]"
answer_label = 1

[[record]]
compound = "CN1C(=O)COc2c(C(=O)NC3CN4CCC3CC4)cc(Cl)cc21 (centres undefined) [Azasetron HCl]"
answer_label = 1

[[record]]
compound = "CC[C@@H](C(N)=O)N1CCCC1=O"
answer_label = 0

[[record]]
compound = "C[C@]12CC[C@H](O)CC1=CC[C@@H]1[C@@H]2CC[C@]2(C)C(=O)CC[C@@H]12 [Dehydroepiandrosterone]"
answer_label = 1

[[record]]
compound = "CC(C)NCC(O)c1ccccc1Cl (centres undefined) [Clorprenaline HCL]"
answer_label = 0

[[record]]
compound = "CCOC(=O)c1cncn1[C@H](C)c1ccccc1 [Etomidate]"
answer_label = 0

